The reported measurements were obtained from patent US9254299B2.

Tested on: UV41
Experiment: Cytotoxicity in HDR deficient UV41 cells
Assay type: cell-based
Conditions: UV41, air; read-out: IC50 of TH-302 monotherapy
QUANTITY NAME: IC50 (µM)

>>> df
                                item_smiles  unit_info  readout_number
0  Cn1c(COP(=O)(NCCBr)NCCBr)cnc1[N+](=O)[O-]         µM              29
